system: NCI-H23 lung; test: NCI tumour cell line growth inhibition, 48 h; in the data active = GI50 below about 0.43 µM; inactive = the rest
Allowed answers: True = active, False = inactive

Solved entries (count: 3):
CCc1c2c(nc3ccc(OC(=O)OCc4ccc(B5OC(C)(C)C(C)(C)O5)cc4)cc13)-c1cc3c(c(=O)n1C2)COC(=O)[C@]3(O)CC    True
CCN(CC)CCNc1ccc(N=Nc2cnc3ccccc3c2)c2ccccc12    False
CN1CCN(C(=O)[C@@]2(C)CC[C@]3(C)CC[C@]4(C)C(=CC[C@@H]5[C@@]6(C)CC[C@H](OC(=O)c7cccnc7)C(C)(C)[C@@H]6CC[C@]54C)[C@@H]3C2)CC1    False

Status in this test for Cc1c(C(=O)/C=C/c2ccc(Cl)cc2)nnn1-c1ccnc2c(C(F)(F)F)cccc12 ? False
